Experiment: Therapeutic index, ratio of MHC10 for hemolytic activity in human RBC to MIC95 against Candida parapsilosis cgmcc2.3989
Assay type: toxicity
Conditions: human red blood cells (erythrocytes), read-out: TI
Where a SMILES comes first, the peptide text is derived from it.
Measurement name: selectivity ratio
Write no unit; give the number alone.

Report selectivity ratio for CC[C@H](C)[C@H](NC(=O)[C@H](CCCCN)NC(=O)[C@H](C)NC(=O)[C@H](C)N)C(=O)N[C@H](C(=O)N[C@@H](CC(C)C)C(=O)N[C@@H](CC(N)=O)C(=O)N1CCC[C@H]1C(=O)N[C@@H](CCCCN)C(=O)N[C@@H](Cc1ccccc1)C(=O)N[C@@H](CCCNC(=N)N)C(=O)N[C@@H](CS)C(=O)N[C@@H](CCCCN)C(=O)N[C@@H](C)C(=O)N[C@@H](C)C(=O)N[C@@H](Cc1ccccc1)C(=O)N[C@@H](CS)C(N)=O)[C@@H](C)CC (H-AAKIILNPKFRCKAAFC-NH2) please.
0.25

----------
Each entry below lists one item and its recorded MFC<=99.9 value.
System: Candida parapsilosis
Test: Fungicidal activity against Candida parapsilosis cgmcc2.3989 incubated for 48 hrs followed by replating on YM agar plate and measured after 48 hrs
Format: functional
Output spec: scalar in µM, unitless text.

Record excerpt, results attached:
> print(dat)
           substance           target.desc  observed.measurement
1  H-AARIILRWFRR-NH2  Candida parapsilosis                     8
2  H-AARIILRLRFR-NH2  Candida parapsilosis                     8
3  H-AARRILRWIFR-NH2  Candida parapsilosis                    16

So what does the record say about MFC<=99.9 for `H-AARIILRYRFR-NH2` ?
128

----------
Test system: Escherichia coli
Assay: Antibacterial activity against Escherichia coli K88 measured after 24 hrs
Type: functional
Conditions: K88, 24 h
Measurement name: MIC95 (µM)
Write the number in µM without appending the unit.

Examples with their reported MIC95 follow.
> print(dat)
           substance  measurement.name  measurement.unit  observed.measurement
1  H-AARIILRARFR-NH2             MIC95                µM                     2
2  H-AARIILRYRFR-NH2             MIC95                µM                     4
3  H-AARRILRWIFR-NH2             MIC95                µM                     4
4  H-AARIILRNRFR-NH2             MIC95                µM                    32
5  H-AARIILRIRFR-NH2             MIC95                µM                     2
6  H-AARIILRLRFR-NH2             MIC95                µM                     4

Record lookup: for Escherichia coli, what MIC95 belongs to `H-AARIILRPRFR-NH2` ?
16

Ok, now `H-AARIILRTRFR-NH2`
4

For `H-AARIILRFRFR-NH2` then?
4

Also, `H-AARIILRWFRR-NH2` please.
2

Field entry: `H-AARIILRGRFR-NH2`
2

Okay, and `H-AARIILRRRFR-NH2` ?
16

Try this substance next: `H-AARIILRWRFR-NH2`
2
